Target: T1, hu-IL-36β (human IL-36β, N-terminally truncated active form R5-E157) (human)
T1 sequence: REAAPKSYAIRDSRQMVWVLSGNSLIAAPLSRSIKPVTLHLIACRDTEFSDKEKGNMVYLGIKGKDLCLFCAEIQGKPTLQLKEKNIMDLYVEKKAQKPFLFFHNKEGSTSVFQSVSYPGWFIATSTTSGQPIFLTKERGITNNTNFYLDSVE
Test: ELISA, yeast Fab supernatant, anti-Fab-HRP
reported.endpoint: ELISA OD450

# example entries with known answers
[Q] Which value of ELISA OD450 has been reported for mAb1.0 Fab (yeast clone culture supernatant) (Fab, V domains shown) VH: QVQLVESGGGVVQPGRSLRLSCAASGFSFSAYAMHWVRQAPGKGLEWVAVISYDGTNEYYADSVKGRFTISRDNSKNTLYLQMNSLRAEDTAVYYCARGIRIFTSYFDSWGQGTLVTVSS VL: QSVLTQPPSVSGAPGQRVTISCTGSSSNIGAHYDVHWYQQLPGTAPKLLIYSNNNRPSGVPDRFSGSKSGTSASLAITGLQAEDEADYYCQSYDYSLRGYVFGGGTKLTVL in the records?
[A] 0.0523 OD450

[Q] Need ELISA OD450 of mAb4.0 Fab (yeast clone culture supernatant) (Fab, V domains shown) VH: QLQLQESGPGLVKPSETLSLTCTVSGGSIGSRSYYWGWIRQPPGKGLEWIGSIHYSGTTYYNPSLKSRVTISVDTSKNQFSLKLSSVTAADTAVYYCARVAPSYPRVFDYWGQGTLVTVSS VL: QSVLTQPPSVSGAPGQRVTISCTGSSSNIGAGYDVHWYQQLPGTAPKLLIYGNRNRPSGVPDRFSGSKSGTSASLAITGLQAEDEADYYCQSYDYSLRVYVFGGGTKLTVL , thanks.
[A] 0.0513 OD450

[Q] I am curious: what ELISA OD450 value has been reported for mAb2.0 Fab (yeast clone culture supernatant) (Fab, V domains shown) VH: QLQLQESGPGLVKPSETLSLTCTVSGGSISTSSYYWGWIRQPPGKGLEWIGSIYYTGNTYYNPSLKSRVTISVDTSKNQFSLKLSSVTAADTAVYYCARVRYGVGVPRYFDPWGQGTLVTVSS VL: QSVLTQPPSVSGAPGQRVTISCTGSSSNIGAHYDVHWYQQLPGTAPKLLIYGNDNRPSGVPDRFSGSKSGTSASLAITGLQAEDEADYYCQSYDYSLSGYVFGGGTKLTVL ?
[A] 0.0604 OD450

Okay, now this binder:
[Q] # input binder: mAb3.0 Fab (yeast clone culture supernatant) (Fab, V domains shown) VH: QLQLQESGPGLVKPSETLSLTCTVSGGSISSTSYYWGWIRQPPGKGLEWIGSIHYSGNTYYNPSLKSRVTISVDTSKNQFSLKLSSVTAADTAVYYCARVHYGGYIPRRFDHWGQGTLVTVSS VL: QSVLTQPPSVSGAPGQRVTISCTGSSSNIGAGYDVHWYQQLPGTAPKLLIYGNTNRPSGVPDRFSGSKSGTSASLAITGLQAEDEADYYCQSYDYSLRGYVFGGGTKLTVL ; wanted: its ELISA OD450
[A] 0.11 OD450

# credit: patent US20230235040A1
